test: total protein half-life in vivo (active degradation + dilution); higher = more stable protein; conditions: wild type E. coli NCM3722; growth: N-lim chemostat; doubling time 6 h
# maps each entry to its total protein half-life in vivo

Construct Sequence	Uom	total protein half-life in vivo
MSQPLLSVNGLMMRFGGLLAVNNVNLELYPQEIVSLIGPNGAGKTTVFNCLTGFYKPTGGTILLRDQHLEGLPGQQIARMGVVRTFQHVRLFREMTVIENLLVAQHQQLKTGLFSGLLKTPSFRRAQSEALDRAATWLERIGLLEHANRQASNLAYGDQRRLEIARCMVTQPEILMLDEPAAGLNPKETKELDELIAELRNHHNTTILLIEHDMKLVMGISDRIYVVNQGTPLANGTPEQIRNNPDVIRAYLGEA [P0A9S7]	h	6.06
MKVAKDLVVSLAYQVRTEDGVLVDESPVSAPLDYLHGHGSLISGLETALEGHEVGDKFDVAVGANDAYGQYDENLVQRVPKDVFMGVDELQVGMRFLAETDQGPVPVEITAVEDDHVVVDGNHMLAGQNLKFNVEVVAIREATEEELAHGHVHGAHDHHHDHDHDGCCGGHGHDHGHEHGGEGCCGGKGNGGCGCH [P0A9K9]	h	3.47
MTIKLIVGLANPGAEYAATRHNAGAWFVDLLAERLRAPLREEAKFFGYTSRVTLGGEDVRLLVPTTFMNLSGKAVAAMASFFRINPDEILVAHDELDLPPGVAKFKLGGGHGGHNGLKDIISKLGNNPNFHRLRIGIGHPGDKNKVVGFVLGKPPVSEQKLIDEAIDEAARCTEMWFTDGLTKATNRLHAFKAQ [P0A7D1]	h	4.81
MALLNVDKLSVHFGDESAPFRAVDRISYSVKQGEVVGIVGESGSGKSVSSLAIMGLIDYPGRVMAEKLEFNGQDLQRISEKERRNLVGAEVAMIFQDPMTSLNPCYTVGFQIMEAIKVHQGGNKSTRRQRAIDLLNQVGIPDPASRLDVYPHQLSGGMSQRVMIAMAIACRPKLLIADEPTTALDVTIQAQIIELLLELQQKENMALVLITHDLALVAEAAHKIIVMYAGQVVETGDAHAIFHAPRHPYTQALLRALPEFAQDKERLASLPGVVPGKYDRPNGCLLNPRCPYATDRCRAEEPALNMLADGRQSKCHYPLDDAGRPTL [P0AAG0]	h	5.94
MPKLILASTSPWRRALLEKLQISFECAAPEVDETPRSDESPRQLVLRLAQEKAQSLASRYPDHLIIGSDQVCVLDGEITGKPLTEENARLQLRKASGNIVTFYTGLALFNSANGHLQTEVEPFDVHFRHLSEAEIDNYVRKEHPLHCAGSFKSEGFGITLFERLEGRDPNTLVGLPLIALCQMLRREGKNPLMG [P0A729]	h	3.77
MTGMTNVTKLASEPSGQEFLVFTLGDEEYGIDILKVQEIRGYDQVTRIANTPAFIKGVTNLRGVIVPIVDLRIKFSQVDVDYNDNTVVIVLNLGQRVVGIVVDGVSDVLSLTAEQIRPAPEFAVTLSTEYLTGLGALGDRMLILVNIEKLLNSEEMALLDSAASEVA [P0A964]	h	1.74
MFDIGVNLTSSQFAKDRDDVVACAFDAGVNGLLITGTNLRESQQAQKLARQYSSCWSTAGVHPHDSSQWQAATEEAIIELAAQPEVVAIGECGLDFNRNFSTPEEQERAFVAQLRIAADLNMPVFMHCRDAHERFMTLLEPWLDKLPGAVLHCFTGTREEMQACVAHGIYIGITGWVCDERRGLELRELLPLIPAEKLLIETDAPYLLPRDLTPKPSSRRNEPAHLPHILQRIAHWRGEDAAWLAATTDANVKTLFGIAF	h	5.25
